Each recorded value in this set is attributed to patent US20210324080A1.

Test Target: T1, human CTLA-4 (Y201V), full length, on transfected cells (human, UniProt P16410 36-223)
T1 construct: whole, on cells; also called hCTLA-4; HEK293-hCTLA-4 (Y201V)
T1 sequence (looked up): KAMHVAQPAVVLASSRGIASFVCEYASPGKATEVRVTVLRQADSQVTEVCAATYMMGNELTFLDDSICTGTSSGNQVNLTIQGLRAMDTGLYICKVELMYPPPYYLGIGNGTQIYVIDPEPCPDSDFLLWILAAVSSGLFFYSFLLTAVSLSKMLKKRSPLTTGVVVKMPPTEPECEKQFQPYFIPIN
Assay Comment: FACS, CHOK1-hCTLA-4 cells
Entries and their MFI at 6.67 nM
Please state the value as a number alone, without comment.

As a guide, the following entries are already answered.
97A8D1 (chimeric antibody purified from hybridoma supernatant) (antibody, V domains shown, also called mAb49; mAb049) VH: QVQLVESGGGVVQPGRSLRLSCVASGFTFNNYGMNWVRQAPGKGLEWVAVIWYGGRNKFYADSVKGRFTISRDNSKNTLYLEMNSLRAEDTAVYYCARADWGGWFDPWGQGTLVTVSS VL: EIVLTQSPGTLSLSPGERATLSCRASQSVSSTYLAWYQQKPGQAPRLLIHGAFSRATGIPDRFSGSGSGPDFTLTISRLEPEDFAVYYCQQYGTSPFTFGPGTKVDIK : 395
40C4C6 (chimeric antibody purified from hybridoma supernatant) (antibody, V domains shown, also called mAb09; mAb009) VH: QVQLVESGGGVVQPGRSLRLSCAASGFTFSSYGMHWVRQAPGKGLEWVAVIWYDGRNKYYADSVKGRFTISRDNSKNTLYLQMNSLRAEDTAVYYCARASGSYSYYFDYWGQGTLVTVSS VL: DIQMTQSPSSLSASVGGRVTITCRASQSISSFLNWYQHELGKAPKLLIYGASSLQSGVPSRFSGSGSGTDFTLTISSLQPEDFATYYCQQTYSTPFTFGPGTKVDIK : 403
92C8B6 (chimeric antibody purified from hybridoma supernatant) (antibody, V domains shown, also called mAb42; mAb042) VH: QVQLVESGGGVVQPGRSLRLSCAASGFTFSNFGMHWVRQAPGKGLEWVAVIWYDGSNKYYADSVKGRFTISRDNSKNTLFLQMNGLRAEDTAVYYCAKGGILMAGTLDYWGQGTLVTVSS VL: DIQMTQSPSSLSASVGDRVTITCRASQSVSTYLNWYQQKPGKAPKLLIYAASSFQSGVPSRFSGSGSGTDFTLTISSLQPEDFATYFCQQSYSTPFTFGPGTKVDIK : 420

Reported MFI at 6.67 nM, binder 31C12F3 (chimeric antibody purified from hybridoma supernatant) (antibody, V domains shown, also called mAb010) VH: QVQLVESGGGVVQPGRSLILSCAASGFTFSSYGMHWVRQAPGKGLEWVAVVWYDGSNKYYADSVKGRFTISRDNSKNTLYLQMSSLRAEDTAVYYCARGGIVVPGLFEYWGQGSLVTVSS VL: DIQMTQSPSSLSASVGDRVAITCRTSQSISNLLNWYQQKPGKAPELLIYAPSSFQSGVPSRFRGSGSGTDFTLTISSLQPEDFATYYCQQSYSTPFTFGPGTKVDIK : ____
386
